Test system: Chordin-like protein 2 (CHRDL2)
Experiment: compounds binding chordin-like 2 – biochemical, small-molecule microarray, 635 nm fluorescence, primary screen (AID 1126);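 note: printed compound slides probed with Chrdl2 protein at 4 µg/mL for 1 h at 4 C; score merges 667 nm emission intensity with signal to noise over three replicate slides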
Settings: fluorescence 635 nm, higher = more signal
Hi all, reminder that labels come from composite z-score, split as group 1 = under -0.6, group 2 = from -0.6 up to 0.3, group 3 = 0.3 and over

Please review the following examples before continuing.
CCCC[C@@H]1C[C@H]1[C@@H](NC(=O)c1ccco1)c1ccccc1; group 1
COc1ccc(CCNC(=O)[C@@]2(C)c3ccccc3C(=O)N(Cc3ccccc3)[C@H]2c2ccc(CO)cc2)cc1; group 3
Cc1cccc(/C=C/C=O)c1; group 2
NC(=O)[C@]1(Cc2ccccc2)N=C(c2ccc(OCCCO)cc2)O[C@@H]1c1ccccc1; group 2
CN1C(=O)C2C=CC(C(O)c3ccccc3)N(NC(=O)OC(C)(C)C)C2C1=O (stereo not given); group 2
CCCNC(=O)[C@@]1(c2ccc([N+](=O)[O-])cc2)CC(=O)N(CC23CC4CC(CC(C4)C2)C3)[C@@H]1c1ccc(CO)cc1I; group 2
COc1ccc([Si](C)(C)[C@H]2[C@H](CC(=O)N3CCC[C@H]3CO)O[C@@]3(C(=O)N(c4ccccc4)c4ccccc43)[C@@H]2C)cc1; group 3
O=C1C2C=CC(C(O)c3ccc(B(O)O)cc3)N(Nc3ccc([N+](=O)[O-])cc3)C2C(=O)N1c1ccccc1 (stereo not given); group 2

Ask | Hello team, could you let me know which band the following compound falls into: NC(=O)NCC#Cc1ccc2c(c1)[C@]1(C(=O)N2)[C@H](C(=O)NC[C@H](O)c2ccccc2)[C@H]2C(=O)O[C@H](c3ccccc3)[C@H](c3ccccc3)N2[C@@H]1c1ccccc1OCCO
Reply | group 1

Ask | Just checking, what class would you give O=C(CS)NCCCCCCNC(=O)[C@H]1C[C@H]2C(=O)N3CCC[C@H]3C(=O)N2[C@H]1c1ccc(O)cc1 here?
Reply | group 2

Ask | Tag the class for C=CCC(OC(C)=O)[C@@H]1[C@@H](N(Cc2cc3ccccc3o2)C(=O)c2cccc3ccccc23)c2cc(OCCCO)ccc2N1C(=O)Cc1ccc(OC)cc1 (stereo not given in full)
Reply | group 3

Ask | Using the reported composite z-score, which band applies to O=C1c2ccccc2[C@@]2(Cc3ccccc3N(Cc3ccccc3)C2=O)[C@H](c2ccc(CO)cc2)N1Cc1ccccc1C(F)(F)F ?
Reply | group 1

Ask | Assign a bin to COCC1C2CC[C@H]3C(OCc4ccc(F)cc4C(F)(F)F)OC[C@]4(C)[C@H]3C2=C(CN4C(=O)OC(C)(C)C)[C@H](C)C1COC (stereo not given in full)
Reply | group 1

Ask | Using the reported composite z-score, which band applies to CCCCN1CC=CC23O[C@@H]4/C=C\CCCOC(=O)C4[C@H]2C(=O)N(C(C)CO)[C@@H]3C1=O (stereo not given in full) ?
Reply | group 2

The values you see were collected from PubChem BioAssay.
